These data points were gathered from patent US20100160386A1.

Target: UniProt:Q07869
Sequence (Q07869 167-468): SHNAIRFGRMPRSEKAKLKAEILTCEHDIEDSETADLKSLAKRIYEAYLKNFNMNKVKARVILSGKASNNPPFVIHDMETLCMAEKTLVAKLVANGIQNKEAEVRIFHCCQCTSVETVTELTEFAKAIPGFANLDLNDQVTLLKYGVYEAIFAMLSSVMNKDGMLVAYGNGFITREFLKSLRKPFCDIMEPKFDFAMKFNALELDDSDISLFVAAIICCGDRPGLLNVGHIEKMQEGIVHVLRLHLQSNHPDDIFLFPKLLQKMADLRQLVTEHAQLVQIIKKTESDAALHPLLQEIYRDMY
Experiment: Cellular transactivation assay (GAL4-PPARα chimera, luciferase reporter in CHO cells)
Details: CHO cells stably expressing GAL4-PPARα chimera and luciferase reporter; stimulation time 6 h
pEC50: −log10 of the molar value.
experimentalEndpoint: pEC50

COc1ccc(Cl)c(Oc2cc(-c3cc(F)cc(F)c3)ncc2C(=O)O)c1 :: 6.70

I = COc1ccc(Oc2cc(-c3ccc(C)c(F)c3)ncc2C(=O)O)c(Cl)c1
II = Cc1ccc(-c2cc(Oc3ccccc3Cl)c(C(=O)O)cn2)cc1F
Between item I and item II , which reported pEC50 is smaller? State the label of the item chosen.
I
(I: 6.63, II: 7.23)
